- Test name: Mouse pharmacokinetic (PK) study
- Assay type: in vivo
- Cond: mouse; male C57BI/6 mice, single 2 mg/kg IV, plasma; read-out: MRTINF—obs
Measured quantity: MRT inf (h)
Numbers only, in h.

Exam item: Respond only with MRT inf recorded for COc1cc(C)c(Sc2cnc(NC(=O)c3ccc(N4CCN(CCCCCCCNC(=O)COc5cccc6c5C(=O)N(C5CCC(=O)NC5=O)C6=O)CC4)cc3)s2)cc1C(=O)N1CCN(C(C)=O)CC1 (stereo not shown)
Marked response: 1.96

###

- Test name: Mouse pharmacokinetic (PK) study
- Assay type: in vivo
- Cond: mouse; male C57BI/6 mice, single 2 mg/kg IV, plasma
Measured quantity: half-life (h)
Answers are plain numbers, in h.

Exam item: Return value of half-life for input COc1cc(C)c(Sc2cnc(NC(=O)c3ccc(N4CCN(CCCCCCCNC(=O)COc5cccc6c5C(=O)N(C5CCC(=O)NC5=O)C6=O)CC4)cc3)s2)cc1C(=O)N1CCN(C(C)=O)CC1 (stereo not shown) , no commentary.
Marked response: 2.18

###

- Test name: Mouse pharmacokinetic (PK) study
- Type: in vivo
- Cond: mouse; male C57BI/6 mice, single 2 mg/kg IV, plasma; read-out: AUCINF—obs (converted)
Measured quantity: AUC(0-inf) (ng·h/mL)
Answers are plain numbers, in ng·h/mL.

Exam item: // Input: COc1cc(C)c(Sc2cnc(NC(=O)c3ccc(N4CCN(CCCCCCCNC(=O)COc5cccc6c5C(=O)N(C5CCC(=O)NC5=O)C6=O)CC4)cc3)s2)cc1C(=O)N1CCN(C(C)=O)CC1 (stereo not shown) . Output its AUC(0-inf) only.
Marked response: 1440

###

- Test name: Mouse pharmacokinetic (PK) study
- Format: in vivo
- Cond: mouse; male C57BI/6 mice, single 2 mg/kg IV, plasma
- Description: Standard PK studies were conducted using male C57BI/6 mice obtained from Scripps Fla. A single 2 mg/kg intravenous (IV) injection of compound 1 solution in 5/90 DMSO/10% Captisol® was evaluated. Plasma concentrations of compound 1 reported at each of the 8 time points (5 min, 15 min, 30 min, 1 h, 2 h, 4 h, 6 h and 8 h post dosing) are the average values from 3 test animals.
Measured quantity: Tmax (min)
Numbers only, in min.

Exam item: # return recorded Tmax for input COc1cc(C)c(Sc2cnc(NC(=O)c3ccc(N4CCN(CCCCCCCNC(=O)COc5cccc6c5C(=O)N(C5CCC(=O)NC5=O)C6=O)CC4)cc3)s2)cc1C(=O)N1CCN(C(C)=O)CC1 (stereo not shown)
Marked response: 4.8

###

- Test name: Mouse pharmacokinetic (PK) study
- Format: in vivo
- Cond: mouse; male C57BI/6 mice, single 2 mg/kg IV, plasma; read-out: VSS—obs
Measured quantity: Vd (L/kg)
One number for each entry, in L/kg.

Exam item: Answer with the recorded Vd for the compound listed here: COc1cc(C)c(Sc2cnc(NC(=O)c3ccc(N4CCN(CCCCCCCNC(=O)COc5cccc6c5C(=O)N(C5CCC(=O)NC5=O)C6=O)CC4)cc3)s2)cc1C(=O)N1CCN(C(C)=O)CC1 (stereo not shown)
Marked response: 2.94
